These entries and their values trace back to ChEMBL document CHEMBL1134374.

test: Intrinsic permeability of the compound; format: ADME
Each entry below carries its recorded Log Po.
In your answer, state the number alone without any accompanying words.

Previously resolved entries follow.
{"columns": ["compound", "Log Po"],
 "data": [
  ["CC(=O)CC(c1ccccc1)c1c(O)c2ccccc2oc1=O (stereo not given)", -2.3],
  ["O=C(O)c1ccccc1O", -3.2],
  ["CN(C)CCCN1c2ccccc2Sc2ccc(Cl)cc21", 1.3],
  ["CC(C)Cc1ccc(C(C)C(=O)O)cc1 (stereo not given)", -0.9]
]}

Would you kindly look at the next entry?
(Q) Would you mind telling me what Log Po value was observed for COCCc1ccc(OCC(O)CNC(C)C)cc1 (stereo not given) ?
(A) -2.8
